Quick reference: interaction score of the listed items.
# system under test: T1, 4H3655-AA
# T1 chain: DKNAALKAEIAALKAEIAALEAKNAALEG
# assay method text: two-hybrid library CCmax;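 note: natural log of median RNA to DNA barcode read ratio; higher means stronger binding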
# run parameters: mean of both orientations
Please reply with the value in numeric form only.

See these solved cases before continuing.
binder="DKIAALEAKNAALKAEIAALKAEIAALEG [4H2505-AA]" reported_measurement=-1.61
binder="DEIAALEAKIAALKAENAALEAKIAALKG [4H342-AA]" reported_measurement=-0.61
binder="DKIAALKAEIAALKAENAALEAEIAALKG [4H2642-AA]" reported_measurement=-1.24
binder="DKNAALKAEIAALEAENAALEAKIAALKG [4H3606-AA]" reported_measurement=-1.72
binder="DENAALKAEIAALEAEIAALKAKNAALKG [4H1552-AA]" reported_measurement=1.01
binder="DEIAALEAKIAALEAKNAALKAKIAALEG [4H317-AA]" reported_measurement=-0.949

**Query** Query: interaction score; subject: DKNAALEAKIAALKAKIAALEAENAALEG [4H3427-AA]
**Result** 0.589

**Query** What about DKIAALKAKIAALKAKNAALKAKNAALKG [4H2944-AA] ?
**Result** -0.297
